Item-by-item account of inhibition at 10 µM
# System: IL-6 in THP-1 cells
# EXPERIMENT_SUMMARY: Inhibition of IL-6 in LPS-stimulated THP-1 human monocyte cells (HTRF)
# Assay type: cell-based
# TEST_CONDITIONS: LPS, IL-6 HTRF, at 10 μM, read-out: percent inhibition in brackets (given for EC50 >10 μM)
# Protocol: Human Monocyte Cell Culture: Human monocyte cell line (THP-1 cells; Catalog # TIB-202, ATCC, Manassas, Va.) were cultured in Roswell Park Memorial Institute (RPMI) 1640 Medium (Catalog #21870-100, Buffalo, N.Y.) with 1% L-glutamine, 1% HEPES, 1% Sodium Pyruvate, 2% Sodium Bicarbonate supplemented with 100 units/mL penicillin, 50 μg/mL streptomycin, 2-mercaptoethanol (0.05 mM) [basal medium] and 10% fetal bovine serum (Catalog #16140089, Life Technologies, Carlsbad, Calif.) at 37° C. and 5% CO2. […]
REPORTED_METRIC: inhibition at 10 µM (%)

* CN1CCN(c2cncc3[nH]c(-c4n[nH]c5ccc(-c6cncnc6)nc45)nc23)CC1 [Compound 251] | 31.8
* Cc1cn(-c2cncc3[nH]c(-c4n[nH]c5ccc(-c6cncc(NC(=O)C(C)(C)C)c6)nc45)nc23)cn1 [Compound 204] | 24.5
* CC(C)(C)CC(=O)Nc1cncc(-c2ccc3[nH]nc(-c4nc5c(-c6ccccc6F)cncc5[nH]4)c3n2)c1 [Compound 72] | 29.8
* CCC(=O)Nc1cncc(-c2ccc3[nH]nc(-c4nc5c(-c6cccs6)cncc5[nH]4)c3n2)c1 [Compound 309] | 31.2
* CC(C)CC(=O)Nc1cncc(-c2ccc3[nH]nc(-c4nc5c(-c6cccc(F)c6)cncc5[nH]4)c3n2)c1 [Compound 2] | 25.4
* Fc1cccc(-c2cncc3[nH]c(-c4n[nH]c5ccc(-c6cncc(OCCN7CCCC7)c6)nc45)nc23)c1 [Compound 486] | 47.4
* O=C(Nc1cncc(-c2ccc3[nH]nc(-c4nc5c(-c6cccc(F)c6)cncc5[nH]4)c3n2)c1)C1CC1 [Compound 20] | 19.6
